The measurements presented in this section are drawn from patent US6936270B2.

Experiment: Fluocinolone acetonide concentration in dog synovial fluid after intraarticular implants in knee joints
Format: in vivo, Canis familiaris
Details: dog, synovial fluid (left knee joint), other: bilateral intraarticular implants (knee joints), 18 mg, Left leg (18 mg implants), Dog 2002, Day 3; read-out: Assayed Concentrations of Fluocinolone Acetonide in Dog Synovial Fluid Samples (Left Leg)
OBSERVED_PROPERTY: concentration at 3 day (ng/mL)

molecule="CC1(C)O[C@@H]2C[C@H]3[C@@H]4C[C@H](F)C5=CC(=O)C=C[C@]5(C)[C@@]4(F)[C@@H](O)C[C@]3(C)[C@]2(C(=O)CO)O1 [Fluocinolone Acetonide]" number=193

---

Test: Fluocinolone acetonide concentration in dog synovial fluid after intraarticular implants in knee joints
Assay type: in vivo, Canis familiaris
Conditions: dog, synovial fluid (right knee joint), other: bilateral intraarticular implants (knee joints), 2 mg, Right leg (2 mg devices), Dog 1001, Day 56; read-out: Assayed Concentrations of Fluocinolone Acetonide in Dog Synovial Fluid Samples (Right Leg)
OBSERVED_PROPERTY: concentration at 56 day

compound="CC1(C)O[C@@H]2C[C@H]3[C@@H]4C[C@H](F)C5=CC(=O)C=C[C@]5(C)[C@@]4(F)[C@@H](O)C[C@]3(C)[C@]2(C(=O)CO)O1 [Fluocinolone Acetonide]" result="19.3 ng/mL"

---

Experiment: Fluocinolone acetonide concentration in dog synovial fluid after intraarticular implants in knee joints
Type: in vivo, Canis familiaris
Settings: dog, synovial fluid (left knee joint), other: bilateral intraarticular implants (knee joints), 18 mg, Left leg (18 mg implants), Dog 3001, Day 7; read-out: Assayed Concentrations of Fluocinolone Acetonide in Dog Synovial Fluid Samples (Left Leg)
OBSERVED_PROPERTY: concentration at 7 day (ng/mL)

compound="CC1(C)O[C@@H]2C[C@H]3[C@@H]4C[C@H](F)C5=CC(=O)C=C[C@]5(C)[C@@]4(F)[C@@H](O)C[C@]3(C)[C@]2(C(=O)CO)O1 [Fluocinolone Acetonide]" number=35300

---

Test: Fluocinolone acetonide concentration in dog synovial fluid after intraarticular implants in knee joints
Type: in vivo, Canis familiaris
Details: dog, synovial fluid (left knee joint), other: bilateral intraarticular implants (knee joints), 18 mg, Left leg (18 mg implants), Dog 1002, Day 3; read-out: Assayed Concentrations of Fluocinolone Acetonide in Dog Synovial Fluid Samples (Left Leg)
OBSERVED_PROPERTY: concentration at 3 day (ng/mL)

compound="CC1(C)O[C@@H]2C[C@H]3[C@@H]4C[C@H](F)C5=CC(=O)C=C[C@]5(C)[C@@]4(F)[C@@H](O)C[C@]3(C)[C@]2(C(=O)CO)O1 [Fluocinolone Acetonide]" number=357

---

Assay: Fluocinolone acetonide concentration in dog plasma after bilateral intraarticular implants (twelve month toxicity study in beagle dogs)
Format: in vivo, Canis familiaris
Settings: other: bilateral intraarticular implants (knee joints), Dog 3001, Day 21, read-out: Assayed Concentrations of Fluocinolone Acetonide in Dog Plasma Samples
Procedure: Devices were administered once via bilateral intraarticular implants. The day of surgical implantation was Day 1. The devices were made as follows. Fluocinolone acetonide, USP, was compressed into 1.5 mm diameter tablets using standard pharmaceutical methods. The tablets were placed into preformed cups made from silicone elastomer. Cup size was dependent on dosage form. These cups were attached to polyvinyl acetate (PVA) suture tabs. […]
OBSERVED_PROPERTY: concentration at 21 day (ng/mL)

compound="CC1(C)O[C@@H]2C[C@H]3[C@@H]4C[C@H](F)C5=CC(=O)C=C[C@]5(C)[C@@]4(F)[C@@H](O)C[C@]3(C)[C@]2(C(=O)CO)O1 [Fluocinolone Acetonide]" observed_property="concentration at 21 day" number=4.92
